The following compounds are shown together with reported Plant response rating, Kochia values.
Tested on: kochia (Bassia scoparia)
Assay Overview: Test A postemergence, kochia
Format: in vivo
Test Conditions: Postemergence, 125 g ai/ha; 0 to 100 scale (0 no effect, 100 complete control)
Readout: Plant response rating, Kochia

1) Cc1cc(Cl)c(NS(=O)(=O)C(F)(F)F)cc1C(=O)N1CCC(F)CC1 :: 60
2) Cc1cc(C)c(N2CC3(CCOCC3)OC2=O)cc1NS(=O)(=O)C(F)(F)F :: 70
3) Cc1cc(C)c(C2=NOC3CCCC23)cc1NS(=O)(=O)C(F)(F)F (centres unmarked) :: 60
4) C#CCN(C)C(=O)c1cc(NS(=O)(=O)C(F)(F)F)c(C)cc1C :: 20
5) Cc1cc(C)c(N(S(=O)(=O)C(F)(F)F)S(=O)(=O)C(F)(F)F)cc1C(=O)N(C)CC1CC1 :: 20
6) COC1CCCN(C(=O)c2cc(NS(=O)(=O)C(F)(F)F)c(C)cc2C)C1 (centres unmarked) :: 10
7) Cc1cc(C)c(C2=NOC3(CCOCC3)C2)cc1NS(=O)(=O)C(F)(F)F :: 20
8) C#CCN(CC#C)C(=O)c1cc(N(S(=O)(=O)C(F)(F)F)S(=O)(=O)C(F)(F)F)c(C)cc1C :: 30
